Consider the following compounds and their measured TGI readings.
System: MCF7 breast
measurement_description: NCI tumour cell line growth inhibition, 48 h

Use these answered entries as a reference point.
{"compound": "Cn1ccnc1C(=O)/C=C/C=C/c1ccc(C(=O)Nc2ccc(F)cc2)cc1", "metric_name": "TGI", "recorded_result": "> 33.3 µM"}
{"compound": "CCNC(=O)N1CCc2cc(OC)c(OCCc3ccc(OC)cc3)cc2C1c1ccc(Cl)cc1C (centres undefined)", "metric_name": "TGI", "recorded_result": "> 100 µM"}
{"compound": "Clc1ccc2oc3c(NCCCn4ccnc4)c4ccccc4nc3c2c1", "metric_name": "TGI", "recorded_result": "> 100 µM"}

response.value for "COc1ccc2c(c1)c(/C=N/Nc1ccnc3cc(Cl)ccc13)cn2C" (field: TGI) = 0.327 µM

Origin of values: PubChem BioAssay (NCI)
